# Test system: T1, hu-sCD47-6His; extracellular domain of human CD47 antigen with 6His-tag (human)
# T1 construct: also called hCD47-his; soluble hCD47
# Experiment description: SPR Biacore
Measured quantity: pKd
When answering, recall that pKd equals minus log10 of the concentration in mol/L, and write that number alone.

Sample records with pKd:
h22-VH4-VL3 (candidate 22.15) (antibody, human IgG4 S228P, kappa, V domains shown, hIgG4-S228P/kappa) VH: QVQLVQSGAEVKKPGASVKVSCKGSGYTFTTYWMHWVRQAPGQGLEWMGMIHPNSGTTNYNEKFKSRVTLTRDTSISTAYMELSRLTSDDTAVYYCTRSHYYDGHFSYWGQGTMVTVSS VL: EIVLTQSPDSLAVSLGERATINCKSSQSLLNSRTRKNYLAWYQQKAGQSPKLLIYWASTRESGVPDRFSGSGSGTDFTLTIDSLQAEDVAVYYCKQSYNLWTFGGGTKVEIKR: 7.92
h22-VH4-VL4 (candidate 22.16) (antibody, human IgG4 S228P, kappa, V domains shown, hIgG4-S228P/kappa) VH: QVQLVQSGAEVKKPGASVKVSCKGSGYTFTTYWMHWVRQAPGQGLEWMGMIHPNSGTTNYNEKFKSRVTLTRDTSISTAYMELSRLTSDDTAVYYCTRSHYYDGHFSYWGQGTMVTVSS VL: DIVMTQSPDSLPVSLGERATINCKSSQSLLNSRTRKNYLAWYQQKPGQPPKLLIYWASTRESGVPDRFTGSGSGTDFTLTISALQAEDVAVYYCKQSYNLWTFGQGTRLEIKR: 8.03
h22-VH3-VL4 (candidate 22.12) (antibody, human IgG4 S228P, kappa, V domains shown, hIgG4-S228P/kappa) VH: QVQLQESGAEVKKPGASVKVSCKASGYTFTTYWMHWVRQAPGQGLEWMGMIHPNSGTTNYNEKFKSRVTMTRDTSTSTVYMELSSLRSEDTAVYYCTRSHYYDGHFSYWGQGTLVTVSS VL: DIVMTQSPDSLPVSLGERATINCKSSQSLLNSRTRKNYLAWYQQKPGQPPKLLIYWASTRESGVPDRFTGSGSGTDFTLTISALQAEDVAVYYCKQSYNLWTFGQGTRLEIKR: 8.00
h22-VH3-VL3 (candidate 22.11) (antibody, human IgG4 S228P, kappa, V domains shown, hIgG4-S228P/kappa) VH: QVQLQESGAEVKKPGASVKVSCKASGYTFTTYWMHWVRQAPGQGLEWMGMIHPNSGTTNYNEKFKSRVTMTRDTSTSTVYMELSSLRSEDTAVYYCTRSHYYDGHFSYWGQGTLVTVSS VL: EIVLTQSPDSLAVSLGERATINCKSSQSLLNSRTRKNYLAWYQQKAGQSPKLLIYWASTRESGVPDRFSGSGSGTDFTLTIDSLQAEDVAVYYCKQSYNLWTFGGGTKVEIKR: 7.96

Could you now look at the following binder, please?
Need pKd, item hIgG4 chimeric candidate 22 (mouse VH/VL, human Fcγ4-S228P and human Kappa backbone) (antibody, V domains shown, hIgG4-S228P/kappa; also called Chim; 22) VH: QVQLQQPGAELVKPGASVKLSCKASGYTFTTYWMHWVKQRPGQGLEWIGMIHPNSGTTNYNEKFKSKATLTVDKSSSSTYMQLSSLTSEDSAVYYCTRSHYYDGHFSYWGQGTLVTVSA VL: DIVMSQSPSSLAVSAGEKVTMSCKSSQSLLNSRTRKNYLAWYQQKPGQSPKLLIYWASTRESGVPDRFTGSGSGTDFTLTISSVQAEDLAVYYCKQSYNLWTFGGGTRLEIKR 7.91
